melting point overview

INSERT INTO results (compound, readout_label, reading) VALUES
  ('Nc1c2c(nc3ccccc13)-c1ccccc1CCC2', 'melting point', '190 to 192 °C');

Look up melting point: CCc1c(C)c2ccc(O)cc2oc1=O
201 to 203 °C

Look up melting point: C=CCNc1nc(NC(C)(C)C)c2scc(C)c2n1
89 to 90 °C

Look up melting point: c1ccc(-c2c[nH]c([C@@H](Cc3c[nH]c4ccccc34)Nc3ncccn3)n2)cc1
138 to 140 °C

---

readout_label: melting point

Some compounds with known melting point results, for comparison:
INSERT INTO measurements (compound, reading) VALUES
  ('Cc1c(NC(=O)c2ccc(-c3ccc(F)cc3)cc2)ccc2cc(CN3CCC(CC(=O)N4CCCCC4)CC3)cnc12', '189 to 190 °C'),
  ('CC1CN(c2n[nH]c(-c3ccc(Cl)cc3)c2-c2ccncc2)CC(C)N1 (stereo not drawn)', '236 to 238 °C'),
  ('CCCCc1nc2c(N)nc3ccccc3c2n1OC', '197 to 199 °C'),
  ('O=C(CCC(=O)N1CCC[C@H]1C(=O)O)c1cccs1', '100 to 102 °C'),
  ('Cc1cnc2c(S(=O)(=O)N[C@@H](CCCc3cn(C(c4ccccc4)(c4ccccc4)c4ccccc4)cn3)C(=O)OC(C)(C)C)cccc2c1', '56 °C'),
  ('O=C(Nc1n[nH]c2c(F)cccc12)c1ccccc1', '232 °C'),
  ('COc1cccc(C(=O)Nc2ccc(N3CCCC3)cc2C(C)=O)c1OC', '137 to 140 °C');

Now look at this one.
Look up melting point: Cc1ccc2cc(-c3ccccc3)ccc2n1
95 °C

---

readout_label: melting point

INSERT INTO measurements (compound_string, reading) VALUES
  ('O=C(O)[C@H](Cc1ccccc1)NC(=S)Cc1ccc([N+](=O)[O-])cc1', '149 to 150 °C');

Look up melting point: O=C(O)CN1C(=O)C(=Cc2ccc(OCCc3ccccc3)c(OCc3ccccc3)c2)SC1=S
198 to 201 °C

Look up melting point: Cc1nc2n(c1CO)-c1ccccc1N(C)c1ccccc1-2
187 to 190 °C

---

melting point overview

Some molecules with known melting point results, for comparison:
INSERT INTO measurements (molecule, readout_label, reading) VALUES
  ('O=C(O)CCCCCCC(=NOCc1ccc(OCc2noc(-c3ccccc3)n2)cc1)c1ccccc1', 'melting point', '76 to 77 °C'),
  ('NS(=O)(=O)c1ccc(-n2nc(C(F)(F)F)c(C3CC3)c2-c2ccccc2)cc1', 'melting point', '173 to 174 °C'),
  ('Cn1ncc2c1CCCc1c-2cnn1C', 'melting point', '191 to 195 °C'),
  ('CCC(CC)c1nc(-c2ccncc2)c(-c2ccc(Cl)cc2)n1C', 'melting point', '100 to 102 °C'),
  ('COC1OC(=O)c2c(O)cccc21 (stereo not given)', 'melting point', '77 to 79 °C');

Look up melting point: CCCCOCCOc1ccc(-c2ccc3c(c2)C=C(C(=O)O)CCN3c2ccc(S(N)(=O)=O)cc2)cc1
185 to 195 °C

Look up melting point: CC(C)c1ccc(S(=O)(=O)c2ccc(F)cc2)c(C(C)C)c1
75 to 80 °C

Look up melting point: O=C(c1ccccc1)N1CC=C(c2c[nH]c3ccc([N+](=O)[O-])cc23)CC1
280 to 282 °C

Look up melting point: NC(=O)c1ccc(F)c2c1C[C@@H](N(CCCc1c[nH]c3c(F)cc(F)cc13)CC1CC1)CO2
147 to 151 °C

Look up melting point: Sc1nccn1Cc1c(Cl)cccc1Cl
242 to 243 °C

Look up melting point: c1ccc2cc(OCCCCCCCCOc3ccc4ccccc4c3)ccc2c1
125 to 126 °C

Look up melting point: CCNc1nnc2ccc(-c3cccc(N(C)C(C)=O)c3)nn12
225 to 227 °C
